# ASSAY_NOTES: Nuclear factor erythroid 2-related factor 2/antioxidant responsive element (Nrf2/ARE) small molecule agonists: qHTS cell viability counter screen in human keratinocytes (AID 1919968); further: nearly all actives have a fitted effect of over 55% in size
# TEST_SETTINGS: KeratinoSens HaCaT ARE cells viability, CellTiter-Fluor, 24 h; series mostly up to 92.4 µM
Inconclusive results are not listed. Activity calls are given as the source filed them. The call rests on the fitted dose curve; in most records, active means well fitted cell-killing curve with a large enough effect in the repeat runs; inconclusive means weak or mixed curves, or effect the other way; inactive means flat fitted curve, though single readings scatter.
Response enum: active, inactive

See these solved cases before continuing.
Task: What classification did `O=c1[nH]c(=O)n([C@H]2CCCO2)cc1F` end up with in this test?
Result: inactive

Task: What classification did `COC(=O)c1sccc1S(N)(=O)=O` end up with in this test?
Result: inactive

Task: What classification did `NC(=O)Nc1ccccc1` end up with in this test?
Result: inactive

***
Task: What classification did `COc1ccc2cc3[n+](cc2c1OC)CCc1cc2c(cc1-3)OCO2` end up with in this test?
Result: active

Task: What classification did CC1CCC(C(C)(C)S)C(=O)C1 (stereo unspecified) end up with in this test?
Result: inactive

Task: What classification did `Cc1c(N)cccc1C(F)(F)F` end up with in this test?
Result: inactive

* * *

# ASSAY_NOTES: Nuclear factor erythroid 2-related factor 2/antioxidant responsive element (Nrf2/ARE) small molecule agonists: qHTS cell viability counter screen in human keratinocytes (AID 1919968); further: nearly all actives have a fitted effect of over 55% in size
# TEST_SETTINGS: KeratinoSens HaCaT ARE cells viability, CellTiter-Fluor, 24 h; series mostly up to 92.4 µM
Records with an inconclusive call do not appear. Calls of active or inactive are those of the source. The call rests on the fitted dose curve; in most records, active means well fitted cell-killing curve with a large enough effect in the repeat runs; inconclusive means weak or mixed curves, or effect the other way; inactive means flat fitted curve, though single readings scatter.
Response enum: active, inactive

Task: What classification did CC(=O)/C=C/C1C(C)=CCCC1(C)C (stereo not given) end up with in this test?
Result: inactive

***
Task: What classification did `O=C(O)c1ccc(CO)o1` end up with in this test?
Result: inactive

Task: What classification did `COc1ccc(N)c(C)c1` end up with in this test?
Result: inactive

* * *

# ASSAY_NOTES: cAMP Responsive Elements (CRE) small molecule antagonists, cell-based qHTS assay (AID 1963591); further: on the % scale 0 is the no-effect control and ±100 the full control effect
# TEST_SETTINGS: CRE-bla HEK293T, beta-lactamase FRET ratio; series mostly up to 92.4 µM
Records with an inconclusive call do not appear. Active and inactive are the calls of the source. The call rests on the fitted dose curve; in most records, active means well fitted inhibition curve with a large enough effect in the signal ratio in the repeat runs (not every such curve was filed as active); inconclusive means weak or mixed curves, or effect the other way; inactive means flat fitted curve, though single readings scatter; the % refers to the signal ratio.
MEASURED_METRIC: activity change, negative = inhibition

Memo: `Cc1cccc(N(C)C(=S)Oc2ccc3ccccc3c2)c1` , reported activity change, negative = inhibition: inactive

Memo: `CCOc1cc(NC(C)=O)ccc1C(=O)OC` , reported activity change, negative = inhibition: inactive

Memo: `CCCC(=O)OCc1ccccc1` , reported activity change, negative = inhibition: inactive

* * *

# ASSAY_NOTES: Nuclear factor erythroid 2-related factor 2/antioxidant responsive element (Nrf2/ARE) small molecule agonists: luciferase reporter gene qHTS assay in human keratinocytes (AID 1919969); further: nearly all actives have a fitted effect of over 35% in size
# TEST_SETTINGS: KeratinoSens HaCaT ARE-luciferase, luminescence, 24 h; series mostly up to 92.4 µM
Records with an inconclusive call do not appear. Calls of active or inactive are those of the source. The call rests on the fitted dose curve.
Response enum: active, inactive

See these solved cases before continuing.
Task: What classification did `CCOC(=O)[C@H](CCc1ccccc1)N[C@@H](C)C(=O)N1C(=O)N(C)C[C@H]1C(=O)O` end up with in this test?
Result: inactive

Task: What classification did `C=COCCCC` end up with in this test?
Result: inactive

Task: What classification did `O=c1[nH]c(=O)c2cn[nH]c2[nH]1` end up with in this test?
Result: inactive

Task: What classification did `O=c1[nH]c2cc(C(F)(F)F)c(N3CCOCC3)cc2n(CP(=O)(O)O)c1=O` end up with in this test?
Result: inactive

Task: What classification did FC(F)(F)C(Cl)Br (stereo not given) end up with in this test?
Result: inactive

Task: What classification did `Cc1ccc(C=O)cc1` end up with in this test?
Result: inactive

Task: What classification did `COc1ccc(Cl)cc1C` end up with in this test?
Result: inactive

Task: What classification did CC(CCC(=O)O)C(=O)O (stereo not given) end up with in this test?
Result: inactive

Task: What classification did `O=S(=O)(O)c1cccc(S(=O)(=O)O)c1` end up with in this test?
Result: inactive

Task: What classification did `CC(C)(C)c1cc(C(C)(C)C)c(O)c(C(C)(C)C)c1` end up with in this test?
Result: active

***
Task: What classification did `CC(=O)Nc1ccc(C)cc1` end up with in this test?
Result: inactive

Task: What classification did `C1CCCNCCC1` end up with in this test?
Result: inactive

Task: What classification did `O=[N+]([O-])c1ccccc1CCO` end up with in this test?
Result: inactive

Task: What classification did CCC(=O)OC(C)c1ccccc1 (stereo not given) end up with in this test?
Result: inactive

Task: What classification did `CCCC(=O)c1ccccc1` end up with in this test?
Result: inactive

* * *

# ASSAY_NOTES: p53 small molecule agonists, cell-based qHTS assay (AID 1963582); further: on the % scale 0 is the no-effect control and ±100 the full control effect
# TEST_SETTINGS: HCT-116 p53RE-bla reporter, beta-lactamase FRET ratio, 16 h; series mostly up to 66 µM
Inconclusive results are not listed. Calls of active or inactive are those of the source. The call rests on the fitted dose curve; in most records, active means well fitted activation curve with a large enough effect in the signal ratio in the repeat runs (not every such curve was filed as active); inconclusive means weak or mixed curves; inactive means flat fitted curve, though single readings scatter; the % refers to the signal ratio.
MEASURED_METRIC: activation

Memo: `O=C(NCN1CCOCC1)c1cnccn1` , reported activation: inactive

Memo: `CNC(=O)Nc1ccc(Cl)c(Cl)c1` , reported activation: inactive

Memo: `CN(C)CCCNCCC#N` , reported activation: inactive

Memo: `CCCCCCCCCCCCI` , reported activation: inactive

Memo: O=C(O)C1CCC(C(=O)O)CC1 (stereo not given) , reported activation: inactive

Memo: CCC(C)S (stereo not given) , reported activation: -0.925% [at 2.33 µM] (inactive)

Memo: `NC(=O)c1cccc([N+](=O)[O-])c1` , reported activation: inactive

Memo: `CCN1CCC[C@H]1CNC(=O)c1c(O)c(Cl)cc(Cl)c1OC` , reported activation: inactive

Memo: `CC(=O)CCC(C)C` , reported activation: inactive

Memo: `O=C(O)c1cc(=O)c2ccccc2o1` , reported activation: inactive

***
Memo: `O=S(=O)(O)c1cccc2ccccc12` , reported activation: inactive

Memo: `NC(=O)Nc1ccc(Cl)cc1` , reported activation: inactive

Memo: `O=C[C@H](O)[C@@H](O)[C@H](O)[C@H](O)CO` , reported activation: inactive

Memo: `OCc1ccccc1O` , reported activation: inactive

Memo: `CC(C)C(=O)c1ccccc1` , reported activation: inactive

Memo: `CCCC(=O)c1ccccc1` , reported activation: inactive

Memo: NS(=O)(=O)c1cc2c(cc1Cl)NC(CC1CCCC1)NS2(=O)=O (stereo not given) , reported activation: inactive

Memo: CCC(C)C1N=C(C)C(C)S1 (stereo not given) , reported activation: inactive

* * *

# ASSAY_NOTES: Nuclear factor erythroid 2-related factor 2/antioxidant responsive element (Nrf2/ARE) small molecule agonists: luciferase reporter gene qHTS assay in human keratinocytes (AID 1919969); further: nearly all actives have a fitted effect of over 35% in size
# TEST_SETTINGS: KeratinoSens HaCaT ARE-luciferase, luminescence, 24 h; series mostly up to 92.4 µM
Inconclusive results are not listed. Active and inactive are the calls of the source. The call rests on the fitted dose curve.
Response enum: active, inactive

See these solved cases before continuing.
Task: What classification did `C=CC(=O)CCCCC` end up with in this test?
Result: inactive

Task: What classification did C=C(C)C(=O)OCCC(C)OC(=O)C(=C)C (configuration not stated) end up with in this test?
Result: inactive

Task: What classification did `CC(C)=CCC/C(C)=C/C(=O)O` end up with in this test?
Result: inactive

***
Task: What classification did CCCCC1CCC(O)CC1 (configuration not stated) end up with in this test?
Result: inactive

Task: What classification did `CCCCc1ccc2cccc(S(=O)(=O)O)c2c1` end up with in this test?
Result: inactive

Task: What classification did `c1cnc2cc3c(cc2n1)C1CNCC3C1` end up with in this test?
Result: inactive

Task: What classification did `CCCCCCCCCCCCCC` end up with in this test?
Result: inactive

Task: What classification did `C(=C\c1ccccc1)/c1ccccc1` end up with in this test?
Result: inactive

Task: What classification did `CN(C)C(=O)Oc1ccc[n+](C)c1` end up with in this test?
Result: inactive

Task: What classification did `CC(=O)OCCCc1ccccc1` end up with in this test?
Result: inactive

* * *

# ASSAY_NOTES: Nuclear factor erythroid 2-related factor 2/antioxidant responsive element (Nrf2/ARE) small molecule agonists: luciferase reporter gene qHTS assay in human keratinocytes (AID 1919969); further: nearly all actives have a fitted effect of over 35% in size
# TEST_SETTINGS: KeratinoSens HaCaT ARE-luciferase, luminescence, 24 h; series mostly up to 92.4 µM
Records with an inconclusive call do not appear. Calls of active or inactive are those of the source. Calls follow the shape of the full dose curve.
Response enum: active, inactive

Task: What classification did CC(C)CCCC(C)N (configuration not stated) end up with in this test?
Result: inactive

Task: What classification did `CN(C)N=Nc1ccccc1` end up with in this test?
Result: inactive

Task: What classification did `CC(C)(C)c1ccc(S)cc1` end up with in this test?
Result: active

Task: What classification did `FC(F)(F)C(F)(F)C(F)(F)C(F)(F)C(F)(F)C(F)(F)CCI` end up with in this test?
Result: inactive

Task: What classification did `Cc1ccc(O)c([N+](=O)[O-])c1` end up with in this test?
Result: inactive

Task: What classification did `CC(C)(CCl)c1ccccc1` end up with in this test?
Result: inactive

Task: What classification did Cc1ccccc1OCC(O)CO (configuration not stated) end up with in this test?
Result: inactive

Task: What classification did `C=C(c1ccc(C(=O)O)cc1)c1cc2c(cc1C)C(C)(C)CCC2(C)C` end up with in this test?
Result: inactive

Task: What classification did `COC(=O)c1cc(S(N)(=O)=O)ccc1OC` end up with in this test?
Result: inactive

Task: What classification did `CCOCCOCC` end up with in this test?
Result: inactive

Task: What classification did `CCSC(=O)N(CC)CC` end up with in this test?
Result: inactive

Task: What classification did `CCCCN=C(N)N=C(N)N` end up with in this test?
Result: inactive
